Attribution: ChEMBL document CHEMBL1201862

Tested on: NCI/ADR-RES
Experiment: NCI tumour cell line growth inhibition, 48 h
Calls of active or inactive are those of the source. Rule as the data show it: active = GI50 up to about 1.1 µM and inactive = higher.
Outcomes you can answer with include only these: 1 = active, 0 = inactive

Prompt line: Test call, this compound: NC(=O)SCCC(N)C(=O)O (stereo not given)
Response line: 0

Prompt line: Test call, this compound: O=C1c2cc3c(cc2NC(c2ccccc2F)C1O)OCO3 (stereo not given)
Response line: 0

Prompt line: Test call, this compound: "Cc1cnc2c(c1)C(=O)N(c1ccc(Br)cc1)S2(=O)=O"
Response line: 0

Prompt line: Test call, this compound: O=C1CC(c2cccc(Cl)c2)Nc2ccc(N3CCCC3)cc21 (stereo not given)
Response line: 1

Prompt line: Test call, this compound: CC12CC3CC/C(=N\O)C(C1)C3(N1CCOCC1)C/C2=N/O (stereo not given)
Response line: 0

Prompt line: Test call, this compound: COc1cc2c3c(cc(Cl)nc3c1OC)C(O)(CC(=O)c1ccccc1)C(=O)N2 (stereo not given)
Response line: 0

Prompt line: Test call, this compound: "COC(=O)c1cc2c3c(c1)Oc1cc(C(=O)OC)cc4c1C3c1c(cc(C(=O)OC)cc1O4)O2"
Response line: 1

Prompt line: Test call, this compound: COc1ccc2c(c1)CCN1CCc3cc(OC)c(OC)cc3CC21 (stereo not given)
Response line: 0

Prompt line: Test call, this compound: "COc1ccc(C(=O)/C=C/c2ccc(OCC#N)cc2)cc1OC"
Response line: 0

Prompt line: Test call, this compound: C/C=C/C=C\C1OC(O)([C@H](CC)C(=O)NC/C=C/C=C(\C)[C@H](OC)C(C)C2OC(\C=C/C=C/C=C(\C)C(=O)c3c(O)ccn(C)c3=O)[C@H](O)[C@@H]2O)C(O)C(O)C1(C)C (stereo not given in full)
Response line: 0

Prompt line: Test call, this compound: "CC(=NNC(=S)Nc1ccc(C)cc1)c1cccc(C(C)=NNC(=S)Nc2ccc(C)cc2)n1"
Response line: 0

Prompt line: Test call, this compound: "OCSc1nn(CO)c(=S)s1"
Response line: 0

Prompt line: Test call, this compound: "Cc1[nH]c(=O)nc(S)c1C(=O)Nc1cccc2cc3ccccc3cc12"
Response line: 0

Prompt line: Test call, this compound: "CCOP(=O)(O)C(C)(C)NC"
Response line: 0

Prompt line: Test call, this compound: "COc1ccc(/N=N/C(=N\c2ccc(F)cc2)c2ccc(N(CCC#N)CCC#N)cc2)cc1"
Response line: 0

Prompt line: Test call, this compound: "O=P(NC12CC3CC(CC(C3)C1)C2)(N1CC1)N1CC1"
Response line: 0

Prompt line: Test call, this compound: CC(=O)N1C(C(=O)NC2CCCCC2)CSC1c1ccccc1 (stereo not given)
Response line: 0

Prompt line: Test call, this compound: Nc1ncnc2c1cnn2COCC(O)CO (stereo not given)
Response line: 0

Prompt line: Test call, this compound: "COC(C/C(=C/CO[Si](C(C)C)(C(C)C)C(C)C)C(=O)Nc1ccccc1I)OC"
Response line: 0

Prompt line: Test call, this compound: "O=C(Nc1ccccc1)N1CCNC1=S"
Response line: 0

Prompt line: Test call, this compound: COC(=O)NC1C(C)OC(OC2C/C=C(/C)C3C=CC4C(OC5CC(OC6CC(O)C(OC7CC(O)C(OC)C(C)O7)C(C)O6)C(O)C(C)O5)C(C)CC(C)C4C3(C)C(=O)C3=C(O)C4(CC(C)C(CO)=CC4/C=C\2C)OC3=O)CC1(C)[N+](=O)[O-] (stereo not given)
Response line: 0

Prompt line: Test call, this compound: "NC(=S)N1N=C2c3ccccc3CCC[C@H]2[C@@H]1c1ccccc1"
Response line: 1

Prompt line: Test call, this compound: "CCCCCCCCCCCCCC[C@@H](O)[C@H]1CC[C@H]([C@H]2CC[C@H]([C@H](O)CCCCCC[C@@H](O)CC3=C[C@H](C)OC3=O)O2)O1"
Response line: 0

Prompt line: Test call, this compound: "CC1=C(/C=C/C(=O)O)C(C)(C)CCC1"
Response line: 0

Prompt line: Test call, this compound: "COc1ccc(/C=C2/C(C)=NN(c3cccc(Cl)c3)/C2=N/c2nc3ccccc3s2)cc1"
Response line: 0

Prompt line: Test call, this compound: O=[N+]([O-])C1=Cc2cc(Cl)ccc2OC1c1cccc2ccccc12 (stereo not given)
Response line: 0

Prompt line: Test call, this compound: "Cc1ccc(C(=O)N/N=C(\N=N\c2ccccc2[N+](=O)[O-])c2ccc(N(C)C)cc2)cc1"
Response line: 0

Prompt line: Test call, this compound: "CC1=C(C(=O)NNC(=O)CC#N)CC(C(=O)NNC(=O)CC#N)=C(C)N1"
Response line: 0

Prompt line: Test call, this compound: "N#Cc1c(N)oc(-c2cccc([N+](=O)[O-])c2)c1C#N"
Response line: 0

Prompt line: Test call, this compound: COc1ccc(C(CC2(c3ccc(OC)cc3)SCCCS2)NC(C)=O)cc1 (stereo not given)
Response line: 0

Prompt line: Test call, this compound: CCOC(=O)CCC(NC(=O)c1ccc(Nc2cnc3ccc(C(F)(F)F)cc3n2)cc1)C(=O)OCC (stereo not given)
Response line: 0

Prompt line: Test call, this compound: "Cn1c(=O)c2nc(CCCc3ccc([N+](=O)[O-])cc3)[nH]c2n(C)c1=O"
Response line: 0

Prompt line: Test call, this compound: "O=S(=O)(c1cc(Cl)ccc1Cl)n1ccnc1"
Response line: 0

Prompt line: Test call, this compound: COc1cccc(C23CCCC(C2)NCC3Br)c1OC (stereo not given)
Response line: 0

Prompt line: Test call, this compound: C=C1C(=O)[C@@]23CC[C@@H]4[C@@]5(C)CCC[C@@]4(OC5=O)C2(C)CC[C@]1(OC)C3 (stereo not given in full)
Response line: 0
